Tested on: field corn (Zea mays L., var. Dekalb 535, CORN)
Test Details: Post-emerge test, crop safety
Format: in vivo
Condition Set: post-emerge, 250 g ai/ha, 14 days after application, rating scale 0-100
Description: A standard greenhouse herbicide activity screening system was used to evaluate the herbicidal efficacy and crop safety of these test compounds. […] At 14 days after application of the test materials, phytotoxicity ratings were recorded. […]
Metric: phytotoxicity rating CORN
Just the number, please.

Query: phytotoxicity rating CORN; subject: COc1c(Cl)cc(F)c(-n2c(=O)cc(C(F)(F)F)n(C)c2=O)c1NC(=O)C(C)=Cc1ccccc1
90

***
So what's the measured phytotoxicity rating CORN for this one? Cn1c(C(F)(F)F)cc(=O)n(-c2c(F)cc(Cl)c(OCC#N)c2NC(=O)CCc2ccccc2)c1=O
80

# repeat for COc1c(Cl)cc(F)c(-n2c(=O)cc(C(F)(F)F)n(C)c2=O)c1NC(=O)c1c(F)cccc1F
15

Item: COc1c(Cl)cc(F)c(-n2c(=O)cc(C(F)(F)F)n(C)c2=O)c1NC(=O)c1cnc2ccccc2n1
10

How about COc1c(Cl)cc(F)c(-n2c(=O)cc(C(F)(F)F)n(C)c2=O)c1N(C(=O)C=Cc1ccccc1Cl)C(=O)C=Cc1ccccc1Cl ?
0

And what about the compound COc1c(Cl)cc(F)c(-n2c(=O)cc(C(F)(F)F)n(C)c2=O)c1N(C(=O)COc1ccccc1)C(=O)COc1ccccc1 ?
70

----------
System: field corn (Zea mays L., var. Dekalb 535, CORN)
Test Details: Post-emerge test, crop safety
Format: in vivo
Condition Set: 63 g ai/ha; phytotoxicity rating 0-100 (0 no damage, 100 complete death), 14 days after application
Metric: Post-emerge Herbicidal Activity CORN (crop damage)
Enter a number only.

Guide cases for Post-emerge Herbicidal Activity CORN (crop damage), answers given:
Query (compound): CC(C)Oc1c(Cl)cc(F)c(-n2c(=O)cc(C(F)(F)F)n(C)c2=O)c1N [Compound 1-63] ; field requested: Post-emerge Herbicidal Activity CORN (crop damage)
0

Item: COc1c(Cl)cc(F)c(-n2c(=O)cc(C(F)(F)F)n(C)c2=O)c1N(C(=O)C=C(C)C)C(=O)C=C(C)C [2-8]
0

Next up: Cn1c(C(F)(F)F)cc(=O)n(-c2c(F)cc(Cl)c(OCc3ccccc3)c2N)c1=O [Compound 1-22]
5

---
Recorded Post-emerge Herbicidal Activity CORN (crop damage) of CCOC(=O)CC(=O)Nc1c(OC(=O)CC(=O)OCC)c(Cl)cc(F)c1-n1c(=O)cc(C(F)(F)F)n(C)c1=O [2-16] , please.
70

----------
Recorded measurements of phytotoxicity rating CORN, one per entry
Tested on: field corn (Zea mays L., var. Dekalb 535, CORN)
Test Details: Pre-emerge test, crop safety
Assay type: in vivo
Condition Set: pre-emerge, 250 g ai/ha, 14 days after application, rating scale 0-100
Output spec: single numeric token, no unit.

Completed entries (count: 5):
So what does the record say about phytotoxicity rating CORN for CCOC(=O)N(C)C(=O)NNc1c(OC)c(Cl)cc(F)c1-n1c(=O)cc(C(F)(F)F)n(C)c1=O ?
98

What about this compound? COc1c(Cl)cc(F)c(-n2c(=O)cc(C(F)(F)F)n(C)c2=O)c1NN=C(C(F)(F)F)C(F)(F)F
100

Another compound to check: COc1c(Cl)cc(F)c(-n2c(=O)cc(C(F)(F)F)n(C)c2=O)c1NNC(=O)C1CC1
100

Param item: COc1c(Cl)cc(F)c(-n2c(=O)cc(C(F)(F)F)n(C)c2=O)c1CC(C)(Cl)C(=O)OCC1CCCO1 (stereo not shown)
95

Try this compound next: COc1c(Cl)cc(F)c(-n2c(=O)cc(C(F)(F)F)n(C)c2=O)c1NNC(=O)Nc1ccc(F)cc1F
90

Next:
Which measured phytotoxicity rating CORN value corresponds to CCCOC(=O)C(Cl)Cc1c(OCC)c(Cl)cc(F)c1-n1c(=O)cc(C(F)(F)F)n(C)c1=O (stereo not shown) [14-65] ?
0

And the next one, CCOC(=O)C(Cl)(CC(=O)OC)Cc1c(OC)c(Cl)cc(F)c1-n1c(=O)cc(C(F)(F)F)n(C)c1=O (stereo not shown) ?
90

Now the same for COc1c(Cl)cc(F)c(-n2c(=O)cc(C(F)(F)F)n(C)c2=O)c1SC
10

Please answer likewise for CCOC(=O)C(Cl)Cc1c(OCC)c(Cl)cc(F)c1-n1c(=O)cc(C(F)(F)F)n(C)c1=O (stereo not shown) [14-64]
0

----------
Catalogue of Pre-emerge crop damage RICE (phytotoxicity rating, scale 0-100) readings, one per entry.
System: upland rice (Oryza sp., var. Tebonnet, RICE)
Test Details: Pre-emerge test, crop safety
Format: in vivo
Condition Set: 250 g ai/ha; pre-emerge; rated 14 days after application; 0 = no damage, 100 = complete death
Answer with a bare number; do not write a unit.

Below are worked cases with known answers.
// query Pre-emerge crop damage RICE (phytotoxicity rating, scale 0-100) value for entry COc1c(Cl)cc(F)c(-n2c(=O)cc(C(F)(F)F)n(C)c2=O)c1N(C(=O)C1CC1)C(=O)C1CC1
20

Same for COc1c(Cl)cc(F)c(-n2c(=O)cc(C(F)(F)F)n(C)c2=O)c1NC(=O)C1CCCCC1
60

Same question for COC(=O)C=CCOc1c(Cl)cc(F)c(-n2c(=O)cc(C(F)(F)F)n(C)c2=O)c1N please.
70

More entries:
Request the reported Pre-emerge crop damage RICE (phytotoxicity rating, scale 0-100) associated with CCOC(=O)C(C)Nc1cc(Cl)cc(F)c1-n1c(=O)cc(C(F)(F)F)n(C)c1=O (stereo not shown)
95

----------
System: barnyardgrass (Echinochloa crus-galli, ECHCG)
Test Details: Pre-emerge test, greenhouse herbicide activity screening
Type: in vivo
Condition Set: 250 g ai/ha; rated 14 days after application; 0 = no damage, 100 = complete death
Reported Pre-emerge Herbicidal Activity, phytotoxicity rating (0-100), ECHCG values are given for each entry in this list.
Please state the value as a number alone, without comment.

Give its Pre-emerge Herbicidal Activity, phytotoxicity rating (0-100), ECHCG value. Item: COc1c(Cl)cc(F)c(-n2c(=O)cc(C(F)(F)F)n(C)c2=O)c1NC(=O)c1ccc(Br)cc1 [2-61]
100

Then this compound: COc1c(Cl)cc(F)c(-n2c(=O)cc(C(F)(F)F)n(C)c2=O)c1NC(=O)c1ccc(Cl)cc1Cl [2-58]
100

Moving on to the next compound: COc1c(Cl)cc(F)c(-n2c(=O)cc(C(F)(F)F)n(C)c2=O)c1NC(=O)c1ccc2c(c1)OCO2 [2-73]
100

Now let's try a different one.
Pre-emerge Herbicidal Activity, phytotoxicity rating (0-100), ECHCG for COc1c(Cl)cc(F)c(-n2c(=O)cc(C(F)(F)F)n(C)c2=O)c1NC(=O)c1cccc(F)c1F [2-41] ?
100

----------
Tested on: field corn (Zea mays L., var. Dekalb 535, CORN)
Test Details: Post-emerge test, crop safety
Assay type: in vivo
Condition Set: 63 g ai/ha; phytotoxicity rating 0-100 (0 no damage, 100 complete death), 14 days after application
Metric: Post-emerge Herbicidal Activity CORN (crop damage)
// return just the number, without any unit appended

Completed entries (count: 2):
Any idea what Post-emerge Herbicidal Activity CORN (crop damage) was measured for CCOc1c(Cl)cc(F)c(-n2c(=O)cc(C(F)(F)F)n(C)c2=O)c1N ?
10

Moving on to COc1c(Cl)cc(F)c(-n2c(=O)c(N)c(C(F)(F)F)n(C)c2=O)c1N
0

More entries:
If you can, please state the reported Post-emerge Herbicidal Activity CORN (crop damage) value of CCOC(=O)C(C)Nc1cc(Cl)cc(F)c1-n1c(=O)cc(C(F)(F)F)n(C)c1=O (stereo not shown) .
50

Repeat with C=Cc1ccc(C(=O)Nc2c(OC)c(Cl)cc(F)c2-n2c(=O)cc(C(F)(F)F)n(C)c2=O)cc1
40

Please do the same for COc1c(Cl)cc(F)c(-n2c(=O)cc(C(F)(F)F)n(C)c2=O)c1NC(=O)c1cccc(C)c1 as well.
40

Now consider Cn1c(C(F)(F)F)cc(=O)n(-c2c(F)cc(Cl)c(OCC#N)c2NC(=O)C(F)(F)F)c1=O .
5

Let us now turn to COc1c(Cl)cc(F)c(-n2c(=O)cc(C(F)(F)F)n(C)c2=O)c1NC(=O)C(C)(C)C
0

And the next one, COc1c(Cl)cc(F)c(-n2c(=O)cc(C(F)(F)F)n(C)c2=O)c1N=C(Cl)C(Cl)(Cl)Cl ?
0

Likewise for COC(=O)C(=O)Nc1c(OC)c(Cl)cc(F)c1-n1c(=O)cc(C(F)(F)F)n(C)c1=O ?
0

What do we get for COC(=O)C=CCOc1c(Cl)cc(F)c(-n2c(=O)cc(C(F)(F)F)n(C)c2=O)c1N ?
10

Continue with CCOC(=O)C(C)Nc1cc(OC(F)F)cc(F)c1-n1c(=O)cc(C(F)(F)F)n(C)c1=O (stereo not shown)
0

Same lookup for CCc1ccc(C(=O)Nc2c(OC)c(Cl)cc(F)c2-n2c(=O)cc(C(F)(F)F)n(C)c2=O)cc1 , please.
50
